Measured values drawn from the supplement of paper PMC10307832 for this set.

system: LXF-289; experiment: relative viability (nuclei count vs DMSO), 5 days (fraction); higher = more cells survive; conditions: first compound 0.03162 µM
parameter: relative viability
Simply state the number, no unit and no words.

Guide cases for relative viability, answers given:
compound	relative viability
NC(=O)Nc1cc(-c2cccc(F)c2)sc1C(=O)N[C@H]1CCCNC1 [AZD7762] + CC1(C)CCC(c2ccc(Cl)cc2)=C(CN2CCN(c3ccc(C(=O)NS(=O)(=O)c4ccc(N[C@H](CCN5CCOCC5)CSc5ccccc5)c(S(=O)(=O)C(F)(F)F)c4)cc3)CC2)C1 [Navitoclax] (partner 0.5 µM)	0.962
NC(=O)Nc1cc(-c2cccc(F)c2)sc1C(=O)N[C@H]1CCCNC1 [AZD7762] + CS(=O)(=O)CCNCc1ccc(-c2ccc3ncnc(Nc4ccc(OCc5cccc(F)c5)c(Cl)c4)c3c2)o1 [Lapatinib] (partner 2 µM)	0.909
NC(=O)Nc1cc(-c2cccc(F)c2)sc1C(=O)N[C@H]1CCCNC1 [AZD7762] + O=C(c1cc(Cc2n[nH]c(=O)c3ccccc23)ccc1F)N1CCN(C(=O)C2CC2)CC1 [Olaparib] (partner 8 µM)	1.18

Okay, next one:
Q: Returns the measured relative viability for the input compound. Input: NC(=O)Nc1cc(-c2cccc(F)c2)sc1C(=O)N[C@H]1CCCNC1 [AZD7762] + CS(=O)(=O)N1CCN(Cc2cc3nc(-c4cccc5[nH]ncc45)nc(N4CCOCC4)c3s2)CC1 [Pictilisib] (partner 1 µM)
A: 0.875

====

tested on: NCI-H1793; assay: relative viability (nuclei count vs DMSO), 5 days (fraction); higher = more cells survive; conditions: first compound 0.5 µM
Overview of recorded relative viability for various compounds
// return a plain number; no unit text

Consider the worked cases shown below.
compound	test.system	readout.number
CC1(C)CCC(c2ccc(Cl)cc2)=C(CN2CCN(c3ccc(C(=O)NS(=O)(=O)c4ccc(N[C@H](CCN5CCOCC5)CSc5ccccc5)c(S(=O)(=O)C(F)(F)F)c4)cc3)CC2)C1 [Navitoclax] + C[C@]1(O)C[C@@H](c2nc(-c3ccc4ccc(-c5ccccc5)nc4c3)c3c(N)nccn32)C1 [Linsitinib] (partner 1 µM)	NCI-H1793	0.766
CC1(C)CCC(c2ccc(Cl)cc2)=C(CN2CCN(c3ccc(C(=O)NS(=O)(=O)c4ccc(N[C@H](CCN5CCOCC5)CSc5ccccc5)c(S(=O)(=O)C(F)(F)F)c4)cc3)CC2)C1 [Navitoclax] + COc1cc2c(Oc3ccc(NC(=O)C4(C(=O)Nc5ccc(F)cc5)CC4)cc3F)ccnc2cc1OCCCN1CCOCC1 [Foretinib] (partner 0.25 µM)	NCI-H1793	0.622

As a next step, examine the compound that follows.
Q: # value lookup — system NCI-H1793, readout relative viability, item CC1(C)CCC(c2ccc(Cl)cc2)=C(CN2CCN(c3ccc(C(=O)NS(=O)(=O)c4ccc(N[C@H](CCN5CCOCC5)CSc5ccccc5)c(S(=O)(=O)C(F)(F)F)c4)cc3)CC2)C1 [Navitoclax] + CC(=O)Nc1cccc(-n2c(=O)n(C3CC3)c(=O)c3c(Nc4ccc(I)cc4F)n(C)c(=O)c(C)c32)c1 [Trametinib] (partner 0.02 µM)
A: 0.402

====

tested on: SW 1573; test: relative viability (nuclei count vs DMSO), 5 days (fraction); higher = more cells survive; details: first compound 0.8 µM
Criterion: relative viability strictly less than 0.3. Met: 1 (yes). Not met: 0 (no).

molecule	class.assignment
C=C1C(=O)O[C@@H](CCCCCCCC)[C@@H]1C(=O)O [C-75] + Cc1cc(Nc2cc(N3CCN(C)CC3)nc(Sc3ccc(NC(=O)C4CC4)cc3)n2)n[nH]1 [Tozasertib] (partner 0.1 µM)	1 (yes)
C=C1C(=O)O[C@@H](CCCCCCCC)[C@@H]1C(=O)O [C-75] + O=C(c1cc(Cc2n[nH]c(=O)c3ccccc23)ccc1F)N1CCN(C(=O)C2CC2)CC1 [Olaparib] (partner 8 µM)	0 (no)
Oc1nc(-c2ccc(C(F)(F)F)cc2)nc2c1CSCC2 [XAV939] + O=C(c1cc(Cc2n[nH]c(=O)c3ccccc23)ccc1F)N1CCN(C(=O)C2CC2)CC1 [Olaparib] (partner 8 µM)	0 (no)
Oc1nc(-c2ccc(C(F)(F)F)cc2)nc2c1CSCC2 [XAV939] + Cc1cc(Nc2cc(N3CCN(C)CC3)nc(Sc3ccc(NC(=O)C4CC4)cc3)n2)n[nH]1 [Tozasertib] (partner 0.1 µM)	1 (yes)

Q: Criterion: relative viability strictly below 0.3. Is it met by Oc1nc(-c2ccc(C(F)(F)F)cc2)nc2c1CSCC2 [XAV939] + CC(=O)c1c(C)c2cnc(Nc3ccc(N4CCNCC4)cn3)nc2n(C2CCCC2)c1=O [Palbociclib] (partner 0.5 µM) ?
A: 0 (no)

Q: Try this molecule next: C=C1C(=O)O[C@@H](CCCCCCCC)[C@@H]1C(=O)O [C-75] + Cc1nc(Nc2ncc(C(=O)Nc3c(C)cccc3Cl)s2)cc(N2CCN(CCO)CC2)n1 [Dasatinib] (partner 0.075 µM)
A: 1 (yes)

====

system: SK-LU-1; test: relative viability (nuclei count vs DMSO), 5 days (fraction); higher = more cells survive; details: first compound 0.08 µM
parameter: relative viability
Would you mind answering with just the numeric figure?

# annotated cases, reported relative viability shown
molecule	relative viability
Oc1nc(-c2ccc(C(F)(F)F)cc2)nc2c1CSCC2 [XAV939] + N=C(N)NC(=N)NCCc1ccccc1 [Phenformin] (partner 250 µM)	0.548
Oc1nc(-c2ccc(C(F)(F)F)cc2)nc2c1CSCC2 [XAV939] + COc1cccc2cc(-c3nc([C@H]4CC[C@H](C(=O)O)CC4)n4ncnc(N)c34)[nH]c12 [OSI-027] (partner 0.5 µM)	0.387
C=C1C(=O)O[C@@H](CCCCCCCC)[C@@H]1C(=O)O [C-75] + CC(=O)Nc1cccc(-n2c(=O)n(C3CC3)c(=O)c3c(Nc4ccc(I)cc4F)n(C)c(=O)c(C)c32)c1 [Trametinib] (partner 0.02 µM)	0.494
C=C1C(=O)O[C@@H](CCCCCCCC)[C@@H]1C(=O)O [C-75] + C[C@]1(O)C[C@@H](c2nc(-c3ccc4ccc(-c5ccccc5)nc4c3)c3c(N)nccn32)C1 [Linsitinib] (partner 1 µM)	1.28
Oc1nc(-c2ccc(C(F)(F)F)cc2)nc2c1CSCC2 [XAV939] + CC(C)C[C@H](NC(=O)[C@H](Cc1ccccc1)NC(=O)c1cnccn1)B(O)O [Bortezomib] (partner 0.002 µM)	1.16

Now examine the next entry.
Q: relative viability lookup needed for C=C1C(=O)O[C@@H](CCCCCCCC)[C@@H]1C(=O)O [C-75] + CC(C)C[C@H](NC(=O)[C@H](Cc1ccccc1)NC(=O)c1cnccn1)B(O)O [Bortezomib] (partner 0.002 µM) , thanks.
A: 1.24

====

tested on: NCI-H1734; assay: relative viability (nuclei count vs DMSO), 5 days (fraction); higher = more cells survive; conditions: first compound 0.1 µM
A collection of compounds and their measured relative viability
Respond with the number and no other words.

Consider the reported relative viability for these compounds:
compound	relative viability
NC(=O)Nc1cc(-c2cccc(F)c2)sc1C(=O)N[C@H]1CCCNC1 [AZD7762] + Nc1nc2[nH]cc(CCc3ccc(C(=O)N[C@@H](CCC(=O)O)C(=O)O)cc3)c2c(=O)[nH]1 [Pemetrexed] (partner 0.2 µM)	0.334
NC(=O)Nc1cc(-c2cccc(F)c2)sc1C(=O)N[C@H]1CCCNC1 [AZD7762] + CS(=O)(=O)N1CCN(Cc2cc3nc(-c4cccc5[nH]ncc45)nc(N4CCOCC4)c3s2)CC1 [Pictilisib] (partner 1 µM)	0.524

We next turn to a different compound, shown below.
Q: Request the reported relative viability associated with NC(=O)Nc1cc(-c2cccc(F)c2)sc1C(=O)N[C@H]1CCCNC1 [AZD7762] + O=C(c1cc(Cc2n[nH]c(=O)c3ccccc23)ccc1F)N1CCN(C(=O)C2CC2)CC1 [Olaparib] (partner 8 µM)
A: 0.72

====

Listed compounds paired with reported relative viability
tested on: NCI-H1755; assay: relative viability (nuclei count vs DMSO), 5 days (fraction); higher = more cells survive; details: first compound 0.8 µM

Examples with answers:
compound	relative viability
C=C1C(=O)O[C@@H](CCCCCCCC)[C@@H]1C(=O)O [C-75] + N=C(N)NC(=N)NCCc1ccccc1 [Phenformin] (partner 250 µM)	0.577
Oc1nc(-c2ccc(C(F)(F)F)cc2)nc2c1CSCC2 [XAV939] + Cc1nc(NC(=O)N2CCC[C@H]2C(N)=O)sc1-c1ccnc(C(C)(C)C(F)(F)F)c1 [Alpelisib] (partner 2 µM)	0.888
C=C1C(=O)O[C@@H](CCCCCCCC)[C@@H]1C(=O)O [C-75] + CS(=O)(=O)N1CCN(Cc2cc3nc(-c4cccc5[nH]ncc45)nc(N4CCOCC4)c3s2)CC1 [Pictilisib] (partner 1 µM)	0.389
Oc1nc(-c2ccc(C(F)(F)F)cc2)nc2c1CSCC2 [XAV939] + CS(=O)(=O)CCNCc1ccc(-c2ccc3ncnc(Nc4ccc(OCc5cccc(F)c5)c(Cl)c4)c3c2)o1 [Lapatinib] (partner 2 µM)	0.896

Let's switch to this compound now.
Q: Value wanted: relative viability (NCI-H1755) of entry Oc1nc(-c2ccc(C(F)(F)F)cc2)nc2c1CSCC2 [XAV939] + N=C(N)NC(=N)NCCc1ccccc1 [Phenformin] (partner 250 µM)
A: 0.614
